- Assay Procedure: Oral bioavailability in Sprague-Dawley rat at 20 mg/kg measured after 12 hrs by UPLC-QTOF/MS analysis
- Type: ADME, organism-based
- Assay Context: in vivo
Reported Property: bioavailability (%)
I only need the number, in %, no unit after it.

**Query** # lookup: bioavailability of `CC(C)c1cccc(NC(=O)N2CCC[C@H]2c2ncc(-c3ccccc3)s2)c1`
**Result** 60

----------
- Assay Procedure: Cmax in Sprague-Dawley rat at 20 mg/kg, po measured after 12 hrs by UPLC-QTOF/MS analysis
- Assay type: ADME, organism-based
- Design: dose 20 mg/kg, time 12 hrs, route po
- Assay Context: in vivo
Reported Property: Cmax (ng/mL)
I only need the number, in ng/mL, no unit after it.

**Query** # lookup: Cmax of `CC(C)c1cccc(NC(=O)N2CCC[C@H]2c2ncc(-c3ccccc3)s2)c1`
**Result** 311

The measured values listed here are drawn from ChEMBL document CHEMBL5154788.
